Molecular target: TRAP1 enzyme (Homo sapiens, UniProt Q12931)
Construct: 150 nM Trap1 enzyme was incubated with various concentrations of the test compound
Assay: ADP Glo assay of TRAP1 ATPase activity
Type: biochemical
Settings: maximal percent activation; read-out: ADP GLO DRC: Mean Emax
assay.endpoint: Emax

[[record]]
molecule = "COc1ncc(NC(=O)c2csc(-c3ccccc3)n2)cc1S(=O)(=O)Nc1c(C)csc1C [compound 1985]"
system = "TRAP1 enzyme (Homo sapiens, UniProt Q12931)"
result = "160 to 199%"


query: Please report the measured Emax for COc1ncc(NC(=O)c2csc(-c3ccccc3)n2)cc1S(=O)(=O)Nc1c(C)nn(C)c1C [compound 1417]
result: 200 to 300%

query: Please report the measured Emax for COc1ncc(NC(=O)c2ccnc(-c3cccnc3)c2)cc1S(=O)(=O)Nc1c(C)cccc1C [compound 1940]
result: > 300%

query: Please report the measured Emax for CCc1cccc2sc(NS(=O)(=O)c3cc(NC(=O)c4ncc(-c5ccccc5)o4)cnc3OC)nc12 [compound 1552]
result: 119 to 159%

query: Please report the measured Emax for COc1ncc(NC(=O)c2coc(-c3ccccc3)n2)cc1S(=O)(=O)Nc1c(C2CC2)cccc1C1CC1 [compound 2497]
result: 160 to 199%

query: Please report the measured Emax for COc1ncc(NC(=O)c2csc(-c3ccccc3)n2)cc1S(=O)(=O)Nc1ccc(C(F)(F)F)cn1 [compound 2005]
result: 119 to 159%

query: Please report the measured Emax for COc1ncc(NC(=O)c2coc(-c3ccccc3)n2)cc1S(=O)(=O)Nc1ccc(F)c(F)c1C [compound 2000]
result: 200 to 300%

query: Please report the measured Emax for COc1ncc(NC(=O)c2cnc(-c3ccccc3)o2)cc1S(=O)(=O)Nc1cccc(C(F)(F)F)n1 [compound 2397]
result: 119 to 159%

query: Please report the measured Emax for COc1ncc(NC(=O)c2csc(-c3cccc(OCC4COC(C)(C)O4)n3)n2)cc1S(=O)(=O)Nc1c(C)cccc1C (stereo not drawn) [compound 2454]
result: 119 to 159%

query: Please report the measured Emax for COc1ncc(NC(=O)c2coc(-c3ccccc3)n2)cc1S(=O)(=O)Nc1ncc(Cl)cc1C [compound 1966]
result: 160 to 199%

query: Please report the measured Emax for COc1ncc(NC(=O)c2coc(-c3ccc(F)cc3)n2)cc1S(=O)(=O)Nc1c(C)cc(F)cc1C [compound 1937]
result: 119 to 159%

====

Target: TRAP1 enzyme (Homo sapiens, UniProt Q12931)
Construct: 150 nM Trap1 enzyme was incubated with various concentrations of the test compound
Assay: ADP Glo assay of TRAP1 ATPase activity
Type: biochemical
Settings: 1 h; compound concentration 50 μM; read-out: ADP-Glo Percent Activation at 50 μM
Reported values of activation at 50 µM for individual entries

Below are worked cases with known answers.
[[record]]
given_smiles = "COc1ncc(NC(=O)c2cn(C)nc2C(F)(F)F)cc1S(=O)(=O)Nc1c(C)cccc1C"
system = "TRAP1 enzyme (Homo sapiens, UniProt Q12931)"
result = "151 to 180%"

[[record]]
given_smiles = "COc1ncc(NC(=O)c2cccc(C(F)(F)F)c2)cc1S(=O)(=O)Nc1c(C)cccc1C"
system = "TRAP1 enzyme (Homo sapiens, UniProt Q12931)"
result = "151 to 180%"


Kindly review the next compound as well.
query: Please report the measured activation at 50 µM for COc1ncc(NC(=O)c2ccc(CO)cc2)cc1S(=O)(=O)Nc1c(C)cccc1C
result: 151 to 180%

====

Target: TRAP1 enzyme (Homo sapiens)
Construct: 150 nM Trap1 enzyme was incubated with various concentrations of the test compound
Assay: ADP Glo assay of TRAP1 ATPase activity
Assay type: biochemical
Details: concentration for half maximal activation; read-out: ADP GLO DRC: GeoMean EC50
Description: Potency of test compounds to modulate the ATPase activity of TRAP1 enzyme was evaluated using ADP Glo assay. The assay is based on quantification of the ADP generated from ATP in the ATPase reaction. […] Second, the Kinase Detection Reagent is added to simultaneously convert ADP to ATP and allow the newly synthesized ATP to be measured using a luciferase/luciferin reaction. […]
assay.endpoint: EC50

query: Please report the measured EC50 for COc1ncc(NC(=O)c2csc(-c3cccc(OCC(O)CO)n3)n2)cc1S(=O)(=O)Nc1c(C)cccc1C (stereo not drawn) [compound 2463]
result: < 10 µM

query: Please report the measured EC50 for Cc1ncoc1C(=O)Nc1cc(S(=O)(=O)Nc2ccc(Cl)cc2)cc[n+]1[O-] [compound 1294]
result: 20 to 100 µM

query: Please report the measured EC50 for COc1ncc(NC(=O)c2ncc(-c3ccccc3)o2)cc1S(=O)(=O)Nc1ccc(F)cc1C(C)C [compound 1514]
result: < 10 µM

query: Please report the measured EC50 for COc1ncc(NC(=O)c2csc(-c3ccccc3)n2)cc1S(=O)(=O)Nc1ncc(C(F)(F)F)cn1 [compound 2069]
result: 20 to 100 µM

query: Please report the measured EC50 for COc1ncc(NC(=O)c2ccnc(Br)c2)cc1S(=O)(=O)Nc1c(C)cccc1C [compound 1935]
result: 20 to 100 µM

query: Please report the measured EC50 for COc1ncc(NC(=O)c2coc(-c3ccccc3)n2)cc1S(=O)(=O)Nc1c(C2CC2)cccc1C1CC1 [compound 2497]
result: < 10 µM

query: Please report the measured EC50 for COc1ncc(NC(=O)c2ncc(-c3ccccc3)o2)cc1S(=O)(=O)Nc1c(Cl)cccc1C(F)(F)F [compound 1303]
result: 10 to 20 µM

query: Please report the measured EC50 for COc1ncc(NC(=O)c2coc(-c3ccccc3)n2)cc1S(=O)(=O)Nc1cc(C(F)(F)F)n[nH]1 [compound 2156]
result: 20 to 100 µM

query: Please report the measured EC50 for COc1ncc(NC(=O)c2ncccc2C(=O)c2ccccc2)cc1S(=O)(=O)Nc1ccc(Cl)cc1 [compound 1195]
result: 10 to 20 µM

query: Please report the measured EC50 for COc1ncc(NC(=O)c2cccc3ncoc23)cc1S(=O)(=O)Nc1c(C)cccc1C [compound 1367]
result: 20 to 100 µM

query: Please report the measured EC50 for COc1ncc(NC(=O)c2coc(-c3ccccc3)n2)cc1S(=O)(=O)Nc1ncc(Cl)cc1F [compound 1977]
result: 20 to 100 µM

query: Please report the measured EC50 for Cc1cccc(C)c1NS(=O)(=O)c1cc(NC(=O)c2csc(-c3ccccc3)n2)cnc1OCC(O)CO (stereo not drawn) [compound 2418]
result: < 10 µM

query: Please report the measured EC50 for COc1ncc(NC(=O)c2csc(-c3ccccc3)n2)cc1S(=O)(=O)Nc1ccc2nn[nH]c2c1 [compound 1926]
result: 20 to 100 µM

query: Please report the measured EC50 for COc1ncc(NC(=O)c2csc(-c3ccccc3)n2)cc1S(=O)(=O)Nc1c(C)cccc1C [compound 1178]
result: < 10 µM

query: Please report the measured EC50 for COc1ncc(NC(=O)c2ncc(-c3ccccc3)o2)cc1S(=O)(=O)Nc1cc(F)c(C)cc1C#N [compound 1898]
result: 20 to 100 µM

====

Molecular target: TRAP1 enzyme (Homo sapiens)
Construct: 150 nM Trap1 enzyme was incubated with various concentrations of the test compound
Sequence (Q12931 60-704): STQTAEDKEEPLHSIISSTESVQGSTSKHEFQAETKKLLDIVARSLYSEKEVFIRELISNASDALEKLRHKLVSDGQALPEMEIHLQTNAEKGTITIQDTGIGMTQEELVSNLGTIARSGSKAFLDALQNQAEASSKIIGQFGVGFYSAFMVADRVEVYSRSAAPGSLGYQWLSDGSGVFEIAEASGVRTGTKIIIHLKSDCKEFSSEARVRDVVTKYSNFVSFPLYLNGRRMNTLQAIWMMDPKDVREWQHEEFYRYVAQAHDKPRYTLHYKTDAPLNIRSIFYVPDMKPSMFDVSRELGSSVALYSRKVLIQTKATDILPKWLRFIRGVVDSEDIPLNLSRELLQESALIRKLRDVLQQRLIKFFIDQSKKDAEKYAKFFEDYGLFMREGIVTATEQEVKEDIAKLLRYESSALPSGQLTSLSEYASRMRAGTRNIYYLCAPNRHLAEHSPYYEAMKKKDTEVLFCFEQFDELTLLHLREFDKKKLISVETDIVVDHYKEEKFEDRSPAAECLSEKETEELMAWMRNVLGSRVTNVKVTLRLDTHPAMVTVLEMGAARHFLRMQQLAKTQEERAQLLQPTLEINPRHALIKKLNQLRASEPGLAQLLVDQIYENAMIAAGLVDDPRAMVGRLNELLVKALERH
Experiment: ADP Glo assay of TRAP1 ATPase activity
Type: biochemical
Conditions: concentration for half maximal activation; read-out: ADP GLO DRC: GeoMean EC50
pEC50: −log10 of the molar value.
Reported values of pEC50 for individual entries

Below are worked cases with known answers.
[[record]]
molecule = "COc1ncc(NC(=O)c2coc(-c3ccccc3)n2)cc1S(=O)(=O)Nc1c(Cl)cccc1C(F)(F)F"
system = "TRAP1 enzyme (Homo sapiens)"
result = "4.00 to 4.70"

[[record]]
molecule = "COc1ncc(NC(=O)c2cn(C)c3ncccc23)cc1S(=O)(=O)Nc1ccc(Cl)cc1"
system = "TRAP1 enzyme (Homo sapiens)"
result = "4.00 to 4.70"

[[record]]
molecule = "COc1ncc(NC(=O)c2coc(-c3ccccc3)n2)cc1S(=O)(=O)Nc1cccc(C#N)n1"
system = "TRAP1 enzyme (Homo sapiens)"
result = "4.00 to 4.70"

[[record]]
molecule = "COc1ncc(NC(=O)c2ncc(-c3ccccc3)o2)cc1S(=O)(=O)Nc1cccc(C#N)n1"
system = "TRAP1 enzyme (Homo sapiens)"
result = "4.00 to 4.70"

[[record]]
molecule = "COc1ncc(NC(=O)c2csc(-c3ccccc3OCC(O)CO)n2)cc1S(=O)(=O)Nc1c(C)cccc1C (stereo not drawn)"
system = "TRAP1 enzyme (Homo sapiens)"
result = "> 5.00"

[[record]]
molecule = "COc1ncc(NC(=O)c2ncc(-c3ccccc3)o2)cc1S(=O)(=O)Nc1c(F)cccc1C(F)(F)F"
system = "TRAP1 enzyme (Homo sapiens)"
result = "4.00 to 4.70"


Kindly review the next molecule as well.
query: // fetch pEC50; item: COc1ncc(NC(=O)c2csc(Br)n2)cc1S(=O)(=O)Nc1c(C)cccc1C ; system: TRAP1 enzyme (Homo sapiens)
result: 4.70 to 5.00
